All values here come from PubChem BioAssay (NCATS).

target-under-test: Retinal dehydrogenase 2 (Homo sapiens)
assay-explanation: qHTS for Inhibitors of the Aldehyde Dehydrogenase Family (ALDH1A2) Confirmation screens (AID 2061314); further: nearly all actives have a fitted effect of over 65% in size
conditions-used: ALDH1A2 enzyme inhibition qHTS confirmation; series mostly up to 45.9 µM
Records with an inconclusive call do not appear. Activity calls are given as the source filed them. The call rests on the fitted dose curve; in most records, active means well fitted inhibition curve with a large enough effect; inconclusive means small, poorly fitted or top-dose-only effect; inactive means no such curve, though single readings can be large or run the other way.
Field 'call' accepts YES for active, NO for inactive

[in] # lookup: test call for CCN1CCc2nc(N)oc2CC1
[out] NO

[in] Also Cc1c(-c2ccccc2)no[n+]1[O-] ?
[out] NO

[in] Also S=C(NCCCc1cnc[nH]1)NCCCN(Cc1ccc(Cl)c(Cl)c1)c1ccccn1 ?
[out] NO

[in] Also CC(=O)c1ccc(NC(=O)CSc2ccc3nc(-c4ccccc4)cn3n2)cc1 ?
[out] YES

[in] Also O=C(/C=C/c1ccc(O)c(O)c1)O[C@@H]1[C@@H](O)[C@H](OC2CCCCC2O)O[C@H](CO)[C@H]1O (stereo partly specified) ?
[out] NO

[in] Also O=C(NNc1ccccc1)c1ccncc1 ?
[out] NO

[in] Also O=C(O)c1cnn(-c2nc3cc(OC(F)(F)F)c(Cl)cc3[nH]2)c1 ?
[out] NO

[in] Also CC1(C)CC[C@]2(C(=O)O[C@@H]3O[C@H](CO)[C@@H](O)[C@H](O)[C@H]3O)CC[C@]3(C)C(=CCC4[C@@]5(C)C[C@@H](O)[C@H](O)[C@@](C)(CO)C5CC[C@]43C)C2[C@@H]1O (stereo partly specified) ?
[out] NO

[in] Also NCc1ccc(OCCCc2sc(-c3ccc4c(c3)/C(=N/Nc3nc5ccccc5s3)CCC4)nc2C(=O)O)cc1 ?
[out] NO

[in] Also Cc1nc2ccccn2c1P(=O)(c1ccccc1)c1ccccc1 ?
[out] NO

[in] Also OCc1cccc(-c2noc(-c3ccccc3F)n2)c1 ?
[out] NO

[in] Also Cc1c(Cl)cccc1NS(=O)(=O)c1cc2c(cc1Cl)CCC(=O)N2 ?
[out] YES

[in] Also COc1ccc(C2Nc3ccccc3C(=O)N2Cc2ccccc2)cc1COc1ccc(F)cc1 (stereo unspecified) ?
[out] YES

[in] Also CCc1nc2c(sc3nc4c(cc32)COC(C)(C)C4)c(=O)n1Cc1ccco1 ?
[out] YES

[in] Also CC1(COc2ccc3c(c2)ncn3-c2ccc3cccc(N4CCC(N)CC4)c3n2)COC1 ?
[out] YES

[in] Also COC(=O)c1ccc(OC(CO)C(O)c2ccc(O)c(OC)c2)c(OC)c1 (stereo unspecified) ?
[out] NO

[in] Also COC(=O)N1CCN(Cc2cccc(NC(=O)Nc3ccc(C)nc3)c2F)CC1 ?
[out] NO

[in] Also Cc1ccc(OCCn2c(CCNC(=O)c3ccccc3C(F)(F)F)nc3ccccc32)cc1 ?
[out] NO

[in] Also CC(C)(C)Nc1nc(Nc2ccc(C(N)=O)cc2)cc(N)c1C#N ?
[out] YES

[in] Also N#Cc1c(C(=O)c2cccs2)no[n+]1[O-] ?
[out] YES

[in] Also O=C(Nc1cc(C(F)(F)F)cc(C(F)(F)F)c1)c1cnc(Cl)nc1C(F)(F)F ?
[out] NO

###

assay-explanation: qHTS for Inhibitors of the Aldehyde Dehydrogenase Family (ALDH1A2, ALDH1A3, ALDH2, ALDH3A1) (AID 2061307); further: nearly all actives have a fitted effect of over 50% in size
conditions-used: ALDH inhibition qHTS; series mostly up to 50.3 µM
Results filed as inconclusive are left out. Calls of active or inactive are those of the source. The call rests on the fitted dose curve; in most records, active means well fitted inhibition curve with a large enough effect; inconclusive means small, poorly fitted or top-dose-only effect; inactive means no such curve, though single readings can be large or run the other way.
Field 'call' accepts active, inactive

[in] # lookup: test call for CCOc1ccc(NC(=O)CSc2nc3ccccc3nc2N2CCOCC2)cc1
[out] inactive

[in] Also Cc1cc(C)n2ncc(C(=O)Nc3ccc4c(c3)OCO4)c2n1 ?
[out] inactive

[in] Also COc1cccc(CNC(=O)Nc2nc(-c3ccncc3)cs2)c1 ?
[out] active

[in] Also COc1ccc(-c2ccc(CNc3ccc(N4CCN(C(=O)OC(C)(C)C)CC4)cc3)o2)cc1 ?
[out] inactive

[in] Also CC(=O)N(C(C)=O)n1c(C)nc2sc3c(c2c1=O)CCNC3 ?
[out] inactive

[in] Also N#Cc1nc(Nc2cccc(F)c2)nc(NC2CCCC2)n1 ?
[out] active

[in] Also CCOc1ccc(NC(=O)Cn2c(Nc3cc(C)cc(C)c3)nc(C)cc2=O)cc1 ?
[out] inactive

[in] Also Cc1cn(C[C@H](N)C(=O)O)c(=O)n(Cc2ccsc2C(=O)O)c1=O ?
[out] inactive

[in] Also COc1cccc(-c2ccc(CNc3ccc(N4CCN(C(=O)OC(C)(C)C)CC4)cc3)o2)c1 ?
[out] active

[in] Also O=C1c2ccccc2NC(c2ccc(-c3ccc(Br)cc3)o2)N1O (stereo not given) ?
[out] active
